Notes on ΔTm obtained with Serine/threonine-protein kinase 10 (Homo sapiens).
Response body: numeric value in °C, unit text excluded.

Please review the entries below; each comes with its answer.
Nc1n[nH]c2nc3ccccc3nc12    1.6
c1ccc(-c2n[nH]c3c2oc2ccccc23)cc1    1.9
O=c1cc(N2CCOCC2)oc2c(-c3ccccc3)cccc12    0.8
O=C1c2ccccc2-c2n[nH]c3cccc1c23    2.8
COc1cc2c(cc1OC)-c1n[nH]c(Nc3cccc(F)c3)c1C2    2.5
COc1cc2ncnc(Nc3ccc(F)c(Cl)c3)c2cc1OCCCN1CCOCC1    0

// next item, ΔTm requested
The molecule listed as `N#C/C(=C(/N)Sc1ccc(N)cc1)c1ccccc1C(F)(F)F` shows ΔTm equal to 0.4

----------
- Test System: Calcium/calmodulin-dependent protein kinase type II subunit delta (Homo sapiens) (UniProt Q13557)
- Sequence (Q13557 whole entry): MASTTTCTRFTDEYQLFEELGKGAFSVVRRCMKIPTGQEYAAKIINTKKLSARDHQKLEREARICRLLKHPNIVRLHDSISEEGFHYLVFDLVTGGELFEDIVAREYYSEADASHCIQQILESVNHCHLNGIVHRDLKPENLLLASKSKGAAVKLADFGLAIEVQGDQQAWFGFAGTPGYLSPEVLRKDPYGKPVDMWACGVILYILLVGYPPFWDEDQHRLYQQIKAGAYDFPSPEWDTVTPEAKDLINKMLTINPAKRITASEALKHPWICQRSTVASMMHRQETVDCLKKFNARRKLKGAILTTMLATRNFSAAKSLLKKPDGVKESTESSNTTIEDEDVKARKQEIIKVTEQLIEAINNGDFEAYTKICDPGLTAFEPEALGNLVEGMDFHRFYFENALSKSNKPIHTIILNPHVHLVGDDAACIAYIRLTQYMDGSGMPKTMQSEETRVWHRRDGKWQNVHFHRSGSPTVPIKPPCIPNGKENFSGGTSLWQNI
Parameter: ΔTm. Scope: all listed entries.
Give the number; °C is assumed, so skip it.

So for `Cn1cc(C2=C(c3cn(CCCSC(=N)N)c4ccccc34)C(=O)NC2=O)c2ccccc21` , the logged ΔTm turned out to be 1.1

# ΔTm (molecule: `NCCNc1ncc(C(N)=O)c(Nc2cccc(C(F)(F)F)c2)n1` ) is -0.6

----------
So I've got ΔTm readings for 5'-AMP-activated protein kinase catalytic subunit alpha-2 (Homo sapiens) (UniProt P54646), take a look.
Response body: numeric value in °C, unit text excluded.

Below, 5 compounds whose answers are already recorded.
O=S(=O)(c1cccc2c(Cl)cccc12)N1CCCNCC1    -0.4
O=C1Nc2ccccc2/C1=C/c1cnc[nH]1    3.3
Oc1ccc(-c2nc(-c3ccc(F)cc3)c(-c3ccncc3)[nH]2)cc1    -0.7
C#Cc1cccc(Nc2ncnc3cc(OCCOC)c(OCCOC)cc23)c1    -0.6
Cc1ccc(NC(=O)c2cccc(N(C)C)c2)cc1NC(=O)c1ccc(O)cc1    -0.1

The compound listed as `N#C/C(=C(/N)Sc1ccc(N)cc1)c1ccccc1C(F)(F)F` has a reported ΔTm of -0.8

ΔTm recorded for this compound, `N=C(N)NCCNS(=O)(=O)c1cccc2cnccc12` , is 0.5

Short answer for `O=C1NC(=O)C(c2c[nH]c3ccccc23)=C1c1c[nH]c2ccccc12` : ΔTm was 1.2

Short answer for `CC(C)N(CCO)c1nc(Nc2cccc(Cl)c2)c2ncn(C(C)C)c2n1` : ΔTm was 0.2

`C[C@@H](N)[C@H]1CC[C@H](C(=O)Nc2ccncc2)CC1` has a reported ΔTm of 0.5

# ΔTm (compound: `Cn1cc(C2=C(c3cn(CCCSC(=N)N)c4ccccc34)C(=O)NC2=O)c2ccccc21` ) is 2.1

For reference, reported ΔTm for `NC(=O)c1ccc2[nH]c(-c3ccc(Oc4ccc(Cl)cc4)cc3)nc2c1` stands at -0.9

Reported ΔTm for `O=C1Nc2cc(Br)ccc2/C1=C1/Nc2ccccc2/C1=N\O` was 2.4

Measured ΔTm of `Cc1cc(C=C2C(=O)C=CC2=O)cc(C)c1O` : -2.2

Given item `CC(C)(C)c1cc(C=C2C(=O)C=CC2=O)cc(C(C)(C)C)c1O` , the value recorded as its ΔTm is -0.1

Looking up `CC(C)n1cnc2/c(=N/c3cccc(Cl)c3)nc(NCCO)[nH]c21` , I found its ΔTm recorded as 0.3

Entry `O=c1cc(N2CCOCC2)oc2c1ccc1ccccc12` , ΔTm reported as 0.4

Record O=C1NC(=O)c2c1c1c3ccccc3[nH]c1n1cncc21 [ISOGRANULATIMIDE] , field ΔTm: 3.6

Quick note, ΔTm for `Nc1cccc(-c2cc3c(Oc4cccc(O)c4)ncnc3[nH]2)c1` landed at 0.6

Entry `Cc1cc(Nc2nc(-c3ccccc3)nc3ccccc23)n[nH]1` — recorded ΔTm = 5.8

What the record says about `CN1CCC(Nc2ncc3ncnc(Nc4ccc(F)c(Cl)c4)c3n2)CC1` : ΔTm is 0.1

Summary for this compound, `O=C1c2ccccc2-c2n[nH]c3cccc1c23` : ΔTm is 2.1

Recorded result, `CC(C)c1nn(-c2c(Cl)cccc2Cl)c2nc(Cc3ccc(OCCO)cc3)[nH]c(=O)c12` , ΔTm: 1

The reported value for `O=C1Nc2ccccc2/C1=C\c1ccc[nH]1` in terms of ΔTm is 3.2

For reference, reported ΔTm for `CC(C)[C@H](CO)Nc1nc(Nc2cc(N)cc(Cl)c2)c2ncn(C(C)C)c2n1` stands at 0.3

The reported value for `CCOc1ccc(/C=C2/SC(=O)N(CCN)C2=O)cc1` in terms of ΔTm is 0.1

Query `O=c1c(-c2ccc(F)cc2)c(-c2ccncc2)[nH]n1-c1ccc(Cl)cc1` yields ΔTm of 0.2

----------
- Test System: Serine/threonine-protein kinase 10 (Homo sapiens) (UniProt O94804)
- Sequence (O94804 whole entry, looked up): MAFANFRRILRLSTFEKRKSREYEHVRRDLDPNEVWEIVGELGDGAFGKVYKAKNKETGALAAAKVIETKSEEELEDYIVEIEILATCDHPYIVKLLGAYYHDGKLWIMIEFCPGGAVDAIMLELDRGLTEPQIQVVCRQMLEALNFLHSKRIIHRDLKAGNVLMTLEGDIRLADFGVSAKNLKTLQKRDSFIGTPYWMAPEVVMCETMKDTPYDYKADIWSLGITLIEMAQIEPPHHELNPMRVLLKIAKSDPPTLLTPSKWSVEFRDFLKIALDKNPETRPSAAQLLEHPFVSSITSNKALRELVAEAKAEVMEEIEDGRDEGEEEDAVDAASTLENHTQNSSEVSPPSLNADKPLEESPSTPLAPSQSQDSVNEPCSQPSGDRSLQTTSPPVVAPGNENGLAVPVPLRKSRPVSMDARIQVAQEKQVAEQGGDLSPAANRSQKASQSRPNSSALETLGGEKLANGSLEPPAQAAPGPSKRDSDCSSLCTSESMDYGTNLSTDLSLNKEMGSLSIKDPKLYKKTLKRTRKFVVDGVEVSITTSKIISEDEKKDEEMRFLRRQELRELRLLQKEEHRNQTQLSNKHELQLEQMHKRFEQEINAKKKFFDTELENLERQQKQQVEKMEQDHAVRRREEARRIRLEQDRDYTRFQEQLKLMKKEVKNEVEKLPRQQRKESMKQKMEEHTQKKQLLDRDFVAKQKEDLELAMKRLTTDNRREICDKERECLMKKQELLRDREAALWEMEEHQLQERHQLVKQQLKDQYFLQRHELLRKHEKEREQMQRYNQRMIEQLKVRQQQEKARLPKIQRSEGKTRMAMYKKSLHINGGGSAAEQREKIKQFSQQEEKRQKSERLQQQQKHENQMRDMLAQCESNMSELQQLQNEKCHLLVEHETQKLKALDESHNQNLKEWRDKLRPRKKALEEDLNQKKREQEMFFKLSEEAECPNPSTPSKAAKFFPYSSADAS
Quantity: ΔTm (°C)
The reply should be a number in °C, with the unit left off.

// solved cases for ΔTm follow
CN(C)S(=O)(=O)c1ccc2c(c1)/C(=C/c1cc3c([nH]1)CCCC3)C(=O)N2    7.7
O=C(O)/C=C/c1cc(CO)ccc1CO    0.5
O=C1Nc2ccccc2/C1=C1/Nc2ccccc2/C1=N\O    6.2
O=c1cc(-c2ccc(O)cc2)oc2cc(O)cc(O)c12    4
Cn1cc(C2=C(c3cn(CCCN)c4ccccc34)C(=O)NC2=O)c2ccccc21    6.7

ΔTm in this record for `COc1ccc2c(c1)/C(=C/c1cnc[nH]1)C(=O)N2` : 3.5

Short answer for CN(C)CC1CCn2c(c(C3=C(c4c[nH]c5ccccc45)C(=O)NC3=O)c3ccccc32)C1 (configuration not stated) : ΔTm was 4.1

Query `Cc1cc2ncc(-c3ccccc3)nc2cc1C` yields ΔTm of 1

Sample `CC(C)(C)c1nc2c3ccc(F)cc3c3c(=O)[nH]ccc3c2[nH]1` ; ΔTm observed: 6.4

# molecule `CN1CCc2[nH]c(=S)c(C#N)c(-c3cccs3)c2C1` ; its ΔTm = 7.2

----------
- Test System: UniProtKB P49761
- Sequence (P49761 whole entry, looked up): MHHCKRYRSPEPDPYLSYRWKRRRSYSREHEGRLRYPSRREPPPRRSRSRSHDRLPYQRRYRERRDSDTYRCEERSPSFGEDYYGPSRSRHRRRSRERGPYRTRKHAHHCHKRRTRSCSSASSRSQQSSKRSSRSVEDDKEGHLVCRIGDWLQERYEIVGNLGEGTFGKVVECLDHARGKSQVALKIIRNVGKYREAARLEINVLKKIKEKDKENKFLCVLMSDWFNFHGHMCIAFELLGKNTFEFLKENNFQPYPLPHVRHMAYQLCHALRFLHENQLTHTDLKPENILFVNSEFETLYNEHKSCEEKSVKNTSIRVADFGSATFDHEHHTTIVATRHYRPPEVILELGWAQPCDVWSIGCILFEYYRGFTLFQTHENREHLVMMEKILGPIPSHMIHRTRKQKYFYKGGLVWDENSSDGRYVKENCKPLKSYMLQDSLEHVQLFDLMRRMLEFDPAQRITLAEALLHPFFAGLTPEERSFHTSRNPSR
Mark yes (1) only for ΔTm values smaller than 2 °C; exact matches and larger values are no (0).

CN(C)CCCn1cc(C2=C(c3c[nH]c4ccccc34)C(=O)NC2=O)c2ccccc21 [GF-109203]    no (0)
COc1cc(C[C@H]2C(=O)OC[C@@H]2Cc2ccc(OC)c(OC)c2)ccc1O [ARCTIGENIN]    yes (1)
COc1ccc(Cl)cc1NC(=O)Nc1cc(C)nc2ccccc12    yes (1)
CC(C)[C@H](CO)Nc1nc(Nc2cc(N)cc(Cl)c2)c2ncn(C(C)C)c2n1 [AMINOPURVALANOL]    no (0)
CC(C)(C)c1cc(C=C2C(=O)C=CC2=O)cc(C(C)(C)C)c1O    yes (1)

IN: Strictly below 2 °C in ΔTm? `CCOc1cc(/C=C(\C#N)C(N)=O)cc(CSc2ccccc2)c1O`
OUT: yes (1)

IN: Is 2 °C strictly greater than the molecule's reported ΔTm? molecule: O=C1NC(=O)c2c1c1c3ccccc3[nH]c1n1cncc21 [ISOGRANULATIMIDE]
OUT: no (0)

IN: State whether 2 °C exceeds ΔTm recorded for `COc1cc2ncnc(Nc3cccc(Br)c3)c2cc1OC` .
OUT: yes (1)

IN: Does the reported ΔTm of `O=c1sn(Cc2ccccc2)c(=S)n1Cc1ccccc1` stay below 2 °C?
OUT: yes (1)

IN: Lab note: confirm whether the reported ΔTm for this molecule is below 2 °C, equality not counting. molecule: `CN[C@@H]1CC2O[C@@](C)([C@@H]1OC)n1c3ccccc3c3c4c(c5c6ccccc6n2c5c31)C(=O)NC4`
OUT: no (0)

IN: is_below(ΔTm, 2 °C) for NC1=NC(=O)/C(=C2\CCNC(=O)c3[nH]c(Br)cc32)N1 [HYMENIALDISINE] ?
OUT: no (0)

----------
- Test System: Dual specificity mitogen-activated protein kinase kinase 2 (Homo sapiens)
- Sequence (P36507 whole entry): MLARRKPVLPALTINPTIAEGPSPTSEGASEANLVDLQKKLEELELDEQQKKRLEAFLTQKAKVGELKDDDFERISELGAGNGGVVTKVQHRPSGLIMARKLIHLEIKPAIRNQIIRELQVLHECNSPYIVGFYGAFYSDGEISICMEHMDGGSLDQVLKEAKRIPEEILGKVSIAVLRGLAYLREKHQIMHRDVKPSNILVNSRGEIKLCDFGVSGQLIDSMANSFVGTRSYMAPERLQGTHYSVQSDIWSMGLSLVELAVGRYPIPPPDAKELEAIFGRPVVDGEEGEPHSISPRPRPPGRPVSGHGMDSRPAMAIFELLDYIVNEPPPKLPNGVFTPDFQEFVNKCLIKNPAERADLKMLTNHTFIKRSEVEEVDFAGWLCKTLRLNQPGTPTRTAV
Threshold 1 °C. ΔTm below it: Condition met. ΔTm at it or above: Condition not met.

O=C1Nc2ccc(I)cc2/C1=C\c1cc(Br)c(O)c(Br)c1    Condition met
O=C1NC(=O)C(c2cn(CCCn3ccnc3)c3ccccc23)=C1Nc1ccccc1    Condition met
O=C1Nc2ccccc2/C1=C\c1ccc[nH]1    Condition not met

IN: Hello, is ΔTm of the following compound strictly smaller than 1 °C? `O=C1C(Cl)=C(N2C(=O)CCC2=O)C(=O)c2ccccc21`
OUT: Condition met

IN: Determine if `C/C(O)=C(\C#N)C(=O)Nc1cc(Br)ccc1Br` shows ΔTm strictly lower than 1 °C.
OUT: Condition met

IN: Does the reported ΔTm of the following compound sit strictly below 1 °C? `CCN(CC)CCNC(=O)c1c(C)[nH]c(/C=C2\C(=O)Nc3ccc(F)cc32)c1C`
OUT: Condition not met

IN: Please indicate whether the reported ΔTm of `Cc1nc2sccn2c(=O)c1CCN1CCC(=C(c2ccccc2)c2ccc(F)cc2)CC1` is strictly below 1 °C.
OUT: Condition not met

IN: Find out if reported ΔTm for `O=C(O)c1cc(NCc2cc(O)ccc2O)ccc1O` is less than 1 °C
OUT: Condition met
